Each recorded value in this set is attributed to patent US7662856B2.

biological target: alanine racemase enzyme from M. tuberculosis (Mycobacterium tuberculosis, UniProt P9WQA9, DEL103-104); type: biochemical
Sequence (P9WQA9 whole entry, looked up, stated change not applied): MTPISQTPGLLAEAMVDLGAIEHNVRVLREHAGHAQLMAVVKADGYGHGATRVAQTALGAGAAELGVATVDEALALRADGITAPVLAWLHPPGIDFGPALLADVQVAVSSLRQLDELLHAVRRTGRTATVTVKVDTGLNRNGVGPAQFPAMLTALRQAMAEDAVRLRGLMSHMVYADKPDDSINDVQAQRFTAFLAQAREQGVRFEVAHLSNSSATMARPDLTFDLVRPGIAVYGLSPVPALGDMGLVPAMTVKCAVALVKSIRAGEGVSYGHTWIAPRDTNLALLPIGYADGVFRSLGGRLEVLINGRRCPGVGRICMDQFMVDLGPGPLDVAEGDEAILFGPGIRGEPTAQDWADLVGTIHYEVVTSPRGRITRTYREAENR
Where a name gives a salt, the structure may show the parent alone.
endpoint: In % (percent inhibition of alanine racemase) (%)
Your answer is read as %, so omit the unit and give the number.

See these solved cases before continuing.
CONC(=O)CN.O=C(O)C(F)(F)F [TFA•H2NCH2C(O)NHOCH3] :: 66
NCC(=O)NO [H2NOH2G(O)NHOH] :: 100
CC(N)C(=O)NO (stereo not drawn) :: 48
Cl.NCCC(=O)NO [HCl•H2NCH2CH2C(O)NHOH, β-Alanine Hydroxamic Acid Hydrochloride] :: 79

Q: Give the reported In % (percent inhibition of alanine racemase) for this compound. NCC(=O)NO [H2NCH2C(O)NHOH, glycine hydroxamic acid]
Result: 100

Q: Entry NCC(=O)NO [TFA•H2NCH2G(O)NHOH, glycine hydroxamic trifluoracetic acid] needs its In % (percent inhibition of alanine racemase) filled in; supply it.
Result: 104

Q: Supply In % (percent inhibition of alanine racemase) value. Item: Cl.NCC(=O)NO [HCl•H2NCH2C(O)NHOH, Glycine Hydroxamic Acid Hydrochloride]
Result: 105

Q: Using the record for NC(=O)OCC(N)C(=O)NO (stereo not drawn) , state its measured In % (percent inhibition of alanine racemase).
Result: 97

Q: Dear colleague, please send me the reported In % (percent inhibition of alanine racemase) for N[C@@H]1CON=C1O [D-cycloserine, reference compound] when you can.
Result: 93

Q: Determine from records and report In % (percent inhibition of alanine racemase) for NC(=O)C(=O)NO [H2NC(O)C(O)NHOH, N-Hydroxyoxalamide]
Result: 93

Q: Return the recorded In % (percent inhibition of alanine racemase) value; entry: NC(CO)C(=O)NO (stereo not drawn)
Result: 33

Q: Fill in reported In % (percent inhibition of alanine racemase) for this entry: CNCC(=O)NO [CH3NHCH2C(O)NHOH, Sarcosine Hydroxamic Acid]
Result: 81

----------
# key: entry, value: inhibition at 2500 µM
target: alanine racemase enzyme from E. Coli (Escherichia coli, UniProt P0A6B4); assay: biochemical; details: read-out: In % (percent inhibition of alanine racemase)
Sequence (P0A6B4 whole entry): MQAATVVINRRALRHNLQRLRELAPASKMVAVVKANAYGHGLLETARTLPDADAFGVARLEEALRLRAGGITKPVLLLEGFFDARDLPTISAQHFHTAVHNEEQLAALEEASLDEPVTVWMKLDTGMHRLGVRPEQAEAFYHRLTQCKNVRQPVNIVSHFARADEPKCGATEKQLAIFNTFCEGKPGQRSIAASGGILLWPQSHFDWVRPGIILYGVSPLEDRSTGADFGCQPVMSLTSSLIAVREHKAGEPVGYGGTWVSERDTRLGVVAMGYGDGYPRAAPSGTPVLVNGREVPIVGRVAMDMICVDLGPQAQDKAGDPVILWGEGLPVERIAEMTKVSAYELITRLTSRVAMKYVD
Structures can show the parent of a compound that is named as a salt.
Express your answer as a number followed by its unit.

Some solved entries appear below for comparison.
CNCC(=O)NO [CH3NHCH2C(O)NHOH, Sarcosine Hydroxamic Acid] :: 34%
Cl.NCC(=O)NO [HCl•H2NCH2C(O)NHOH, Glycine Hydroxamic Acid Hydrochloride] :: 88%
C[C@@H](N)C(=O)NO [Hcl•H2NCH(CH3)C(O)NHOH, D-Alanine Hydroxamic Acid Hydrochloride] :: 35%
C[C@H](N)C(=O)NO.Cl [HCl•H2NCH(CH3)C(O)NHOH*, L-Alanine Hydroxamic Acid Hydrochloride] :: 39%

Q: Supply reported inhibition at 2500 µM belonging to this compound: Cl.NCCC(=O)NO [HCl•H2NCH2CH2C(O)NHOH, β-Alanine Hydroxamic Acid Hydrochloride]
Result: 37%

----------
target: alanine racemase enzyme from P. aeruginosa (Pseudomonas aeruginosa, UniProt Q9HTQ2, A178S/N326M/S138R/S262R); experiment: biochemical; details: read-out: In % (percent inhibition of alanine racemase)
Sequence (Q9HTQ2 whole entry S138R/A178S/S262R/N326M): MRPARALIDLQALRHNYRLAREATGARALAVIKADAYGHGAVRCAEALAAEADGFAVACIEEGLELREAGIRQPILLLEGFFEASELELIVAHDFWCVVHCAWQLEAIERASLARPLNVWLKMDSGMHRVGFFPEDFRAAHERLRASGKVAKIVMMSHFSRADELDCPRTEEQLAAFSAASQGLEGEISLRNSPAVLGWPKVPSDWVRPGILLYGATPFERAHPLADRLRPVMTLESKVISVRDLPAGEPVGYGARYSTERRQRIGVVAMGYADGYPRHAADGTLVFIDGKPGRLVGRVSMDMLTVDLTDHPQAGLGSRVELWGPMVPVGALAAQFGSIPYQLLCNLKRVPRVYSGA
Where a name gives a salt, the structure may show the parent alone.
Short version: inhibition at 2500 µM at least 30% is Fulfilled, less is Not fulfilled.

Field: example entries. Status: answers known.
Cl.NCC(=O)NO [HCl•H2NCH2C(O)NHOH, Glycine Hydroxamic Acid Hydrochloride] :: Fulfilled
Cl.NCCC(=O)NO [HCl•H2NCH2CH2C(O)NHOH, β-Alanine Hydroxamic Acid Hydrochloride] :: Fulfilled
C[C@H](N)C(=O)NO.Cl [HCl•H2NCH(CH3)C(O)NHOH*, L-Alanine Hydroxamic Acid Hydrochloride] :: Fulfilled
C[C@@H](N)C(=O)NO [Hcl•H2NCH(CH3)C(O)NHOH, D-Alanine Hydroxamic Acid Hydrochloride] :: Not fulfilled

# input for lookup
Q: Determine whether this molecule has inhibition at 2500 µM no lower than 30%: CNCC(=O)NO [CH3NHCH2C(O)NHOH, Sarcosine Hydroxamic Acid]
Result: Not fulfilled

----------
Property: pKi; scope: individual compounds
molecular target: alanine racemase enzyme from P. aeruginosa (Pseudomonas aeruginosa, UniProt Q9HTQ2, A178S/N326M/S138R/S262R); assay: biochemical; conditions: P. aeruginosa ALR; read-out: Ki
Where a name gives a salt, the structure may show the parent alone.
Please report pKi as the negative decimal logarithm of the molar concentration, giving only the number.

Past entries and their recorded results:
CC(N)C(=O)NO (stereo not drawn) [HzNGH(~Ha)G(O)NHOH] :: 3.18
NC(=O)C(=O)NO [H2NC(O)C(O)NHOH, N-Hydroxyoxalamide] :: 4.80
NCC(=O)NO [H2NOH2G(O)NHOH] :: 4.48
NC(CO)C(=O)NO (stereo not drawn) [H2NCH(CH2OH)C(O)NHOH] :: 2.29
N[C@@H]1CON=C1O [D-cycloserine, reference compound] :: 5.00

Q: Using the record for NCC(=O)NO [TFA•H2NCH2G(O)NHOH, glycine hydroxamic trifluoracetic acid] , state its measured pKi.
Result: 4.70

Q: // Input: NC(=O)OCC(N)C(=O)NO (stereo not drawn) [H2NCH(CH2OCONH2)C(O)NILIOH] . Output its pKi only.
Result: 4.52

Q: Look up and report measured pKi for this entry: NCC(=O)NO [H2NCH2C(O)NHOH, glycine hydroxamic acid]
Result: 4.19

Q: Annotate the compound CONC(=O)CN.O=C(O)C(F)(F)F [TFA•H2NCH2C(O)NHOCH3, Trifluoroacetic Acid] with its measured pKi.
Result: 2.82

----------
biological target: alanine racemase enzyme from S. aureus (Staphylococcus aureus, UniProt P63479); test: biochemical; conditions: S. aureus ALR; read-out: Ki
Counter-ions that a name gives are not always drawn.
Output True for records whose Ki is lower than 800 µM, False for records at or above 800 µM.

Here are 8 compounds together with their reported answers.
NCC(=O)NO [H2NCH2C(O)NHOH, glycine hydroxamic acid] :: True
NC(=O)OCC(N)C(=O)NO (stereo not shown) :: True
N[C@@H]1CON=C1O [D-cycloserine, reference compound] :: True
CNCC(=O)NO [CH3NHCH2C(O)NHOH, Sarcosine Hydroxamic Acid] :: False
NCC(=O)NO [TFA•H2NCH2G(O)NHOH, glycine hydroxamic trifluoracetic acid] :: True
NC(CO)C(=O)NO (stereo not shown) :: False
NC(=O)C(=O)NO [H2NC(O)C(O)NHOH, N-Hydroxyoxalamide] :: True
NCC(=O)NO [H2NOH2G(O)NHOH] :: True

Now consider the entry below.
Q: Is the reported Ki for CONC(=O)CN.O=C(O)C(F)(F)F [TFA•H2NCH2C(O)NHOCH3, Trifluoroacetic Acid] strictly below 800 µM?
Result: False

----------
Target: alanine racemase enzyme from S. aureus (Staphylococcus aureus)
Sequence (P63479 1-382): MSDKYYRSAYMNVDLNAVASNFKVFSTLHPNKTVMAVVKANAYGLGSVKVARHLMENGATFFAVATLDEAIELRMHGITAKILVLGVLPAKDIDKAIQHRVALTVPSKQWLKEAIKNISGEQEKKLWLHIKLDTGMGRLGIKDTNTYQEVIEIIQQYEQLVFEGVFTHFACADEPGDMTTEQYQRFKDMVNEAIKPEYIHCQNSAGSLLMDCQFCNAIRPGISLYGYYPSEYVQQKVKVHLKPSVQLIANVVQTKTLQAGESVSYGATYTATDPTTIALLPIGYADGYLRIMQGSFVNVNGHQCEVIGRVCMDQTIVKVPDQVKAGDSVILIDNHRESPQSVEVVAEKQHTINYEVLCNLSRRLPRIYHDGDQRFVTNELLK
Test: biochemical
Settings: S. aureus ALR; % Inhibition at 2.5 mM; read-out: In % (percent inhibition of alanine racemase)
Counter-ions that a name gives are not always drawn.
Would you please tag the item true (1) when its inhibition at 2500 µM is 90% or above, and false (0) when it is below?

Q: In plain terms: is recorded inhibition at 2500 µM at least 90% for NC(CO)C(=O)NO (stereo not shown) ?
Result: false (0)

Q: Kindly determine if inhibition at 2500 µM recorded for NC(=O)OCC(N)C(=O)NO (stereo not shown) is above or exactly 90%.
Result: true (1)

Q: Is it the case that N[C@@H]1CON=C1O [D-cycloserine, reference compound] has inhibition at 2500 µM reaching or exceeding 90%?
Result: true (1)

Q: Check the entry NC(=O)C(=O)NO [H2NC(O)C(O)NHOH, N-Hydroxyoxalamide] : does inhibition at 2500 µM equal or exceed 90%?
Result: true (1)

Q: // inclusive: inhibition at 2500 µM at least 90%? input: CONC(=O)CN.O=C(O)C(F)(F)F [TFA•H2NCH2C(O)NHOCH3, Trifluoroacetic Acid]
Result: false (0)

Q: Does NCC(=O)NO [TFA•H2NCH2G(O)NHOH, glycine hydroxamic trifluoracetic acid] have a reported inhibition at 2500 µM of at least 90%?
Result: true (1)

Q: Decide: is the reported value of inhibition at 2500 µM for CC(N)C(=O)NO (stereo not shown) equal to or greater than 90%?
Result: false (0)
